src = the nanobody polyreactivity screen of Harvey et al. (2022)

experiment: yeast display, Sf9 membrane polyspecificity reagent, FACS + sequencing; frameworks hold sequencing errors
QUANTITY KIND: polyreactivity (PSR sort gate)

Recorded polyreactivity (PSR sort gate), per entry:
// returns reported polyreactivity (PSR sort gate) for input QVQLVESGGGLVQAGGSLRLSCSASRSTFYGNAMGWYRQAPGKERELVAAISSGDITYYADSVKGRFTISRDNAKNTVYLQMNSLKPEDTAVYYCATDYGYSWYDYWGQGTQVTVSS
low polyreactivity

// polyreactivity (PSR sort gate) lookup, key: QVQLVESGGGLVQAGGSLRLSCAATGLTVRYYTMGWYRQAPGKERELVASITIRGGSTYYADSVKGRFTISRDNAKNTVYLQMNSLKAEDTAVYYCNTRYGYSFGYWGQGTQVTVSS
high polyreactivity

Quick one: polyreactivity (PSR sort gate) of QVQLVETGGGLVQAGGSLRLSCAASGLIFYSYTMGWYRQAPGKERELVAVISRSGTSTYYADSVKGRFTISRDNAKNTVYLQMNSLKPEDTAVYYCAARAYVSHYGVSNFGYYYWGQGTQVTVSS ?
high polyreactivity

Report polyreactivity (PSR sort gate) for QVQLVESGGGLVQAGGSLRLSCAASGSTLPYYAMGWYRQAPGKERELVADITARGGTYYADSVKGRFTISRDNAKNTVYLQMNSLKPEDTAVYYCAAEDYWSPGYDYWGQGTQVTVSS please.
high polyreactivity

Query (sequence): QVQLVESGGGLVQAGGSLRLSCAASGFTIDTYAMGWYRQAPGKERELVAGISWSGGSTYYADSVKGRFTISRDNAKNTVYLQMNSLKPEDTAVYYCARTARRRYQPYEYWGQGTQVTVSS ; field requested: polyreactivity (PSR sort gate)
low polyreactivity

Reported polyreactivity (PSR sort gate) for QVQLVESGGGLVQAGGSLRLSCAASGIIFPSYAMGWYRQAPGKERELVAAISLSGGRTYYADSVKGRFTISRDNAKNTVYLQMYSLKPEDTAVYYCAAYPSTSYSKYGYYWGQGTLVTVSS : what is it?
high polyreactivity

***
# input sequence: QVQLVESGRGLVQAGGSLRLSCAASGRTFYLYAMVWNIQAPGKERELVAAITFNGGSTYYADSVKGRFTISRDNAKNTVYLQMNSLKPEDTAVYYCAARLSKRSGYYYWGQVTQVTVSS ; wanted: its polyreactivity (PSR sort gate)
high polyreactivity

State the recorded polyreactivity (PSR sort gate) for this entry: QVQHVESGGGLLQAGGSLRLSCAASGRTFGRYAMGWYRPAPGKERELVADIDYGGGSTYYADSVKGRFTISRDNAKNTFYLQMNSLKPEDTAVYYCNAGRDIGWGYHMDYWGQGTQVTVSS
high polyreactivity

Can you look up the measured polyreactivity (PSR sort gate) of QVQLVESAGGLVQAGGSLRLSCADSGSIFRYYAMGWYRQAQGQERELVAAISYSGGRTYYADSVKGRFTISRDNAKNTVYLQMNSLKPEDTAVYYCNAGAGKRGYDYWGQGTQVTVSS for me?
low polyreactivity

Which polyreactivity (PSR sort gate) value belongs to QVHLVESGGGLVQAGGSLRLSCPASGRTFYRKAMGWDRQAPGKERELVAAITSGGGTTYADSVKGRFTISRDNAKNTVYLQMNSLKPEDTAVYYCAAGRVRRRVLYNYWGQGTQVTVSS ?
high polyreactivity

// polyreactivity (PSR sort gate) lookup, key: QVQLVESGGGLVQAGGSLRLSCAASGRILVYNTMGWSRQAPGKERELVAGIRRGGSTDYADSVKGRFTISRDNAKNTVYLQMNSLNAEDTAVYYCNARYSTGYTKLGYWGQGTQVTVSS
low polyreactivity

----------
experiment: yeast display, Sf9 membrane polyspecificity reagent, FACS + sequencing; frameworks hold sequencing errors
QUANTITY KIND: polyreactivity (PSR sort gate)

May I ask what polyreactivity (PSR sort gate) has been recorded for QVQLEESGGGLVHAGGSLRLSCAASGSTFRPYAMGWYRQAPGKERELVAAIRKIGGRTYYADSVKGRFTISRDNAKNTVYLQMNSLKPEDTAVYYCNKRIGGGVHAYNYWGQGTQVTVSS ?
low polyreactivity

What measured polyreactivity (PSR sort gate) goes with QVQLVESGGGLVQAGGSLRLSCAASGSTFKWNAMGWYRQAPGKERELVAAINSGGSTYYADSVKGRFTISRDNAKNTVYLQMNSLKPEDTAVYYCAKKWAVRTPFRYGIRYDYWGQGTQVTVSS ?
low polyreactivity

----------
assay: yeast display, Sf9 membrane polyspecificity reagent, FACS + sequencing; frameworks hold sequencing errors
QUANTITY KIND: polyreactivity (PSR sort gate)

Before answering, review these 4 worked examples.
Quick check: polyreactivity (PSR sort gate) of QVQLQESGGGLVQAGGSLRLSCAASGYISIGRRMGWYRQAPGKERELVAGINGGGSTNYADSVKGRSTISRDNAKNTVYLQMNSLKPEDTAVYYCAAYVYDYDWYKYWGQGTQVTVSS ?
high polyreactivity

I'd like to know its polyreactivity (PSR sort gate). The sequence in question is QVQLVESGGGLVQAGGSLRLSCAASGSTFQYYAMGWYRQAPGKDRELVAAIRTGGSTNYAHSVKGRFTISRDNAKNTVYLQMNSLKPDDNAVYYCAKRSLRSYRMNYWGQGTQVTVSS
high polyreactivity

Please give the measured polyreactivity (PSR sort gate) for this sequence: QVQLVESGGGLVQAGGSLRLSCAASGFTFARYAMGWYRQAPGKERELVAAISWSGARTYYADSVKGRFTISRDNAKNTVYLQMNSLKPEDTAVYYCNAVSGSSNFDYWGQGTQVTVSS
high polyreactivity

Reported polyreactivity (PSR sort gate), sequence QVQLVESGGALLQAGGSLRLSCAASGGTFYDYAMGWYRQAPGKERELVAAISASGDSTYYADSVKGRFTISRDNAMNTVYLQMNSLKPEDTAVYYCAAEFTAFDGFDYWGQGTQVTVSS : ____
low polyreactivity

# evaluate next
Using the record for QVQLVESGGGLVQAGGSLRLSCAASGSTFGSYVMGWYRQAPGKERELVAAIRWSGTSTYYADSVKGRFTISRDNAKNTVYLQLNSLKPEDTAVYYCNATPNYNRGDHTPMDYWGQGTQVTVSS , report its polyreactivity (PSR sort gate).
low polyreactivity

----------
test: yeast display, Sf9 membrane polyspecificity reagent, FACS + sequencing; frameworks hold sequencing errors
QUANTITY KIND: polyreactivity (PSR sort gate)

Answered cases to consult:
If you can, please state the reported polyreactivity (PSR sort gate) value of QVQLVESGGGLVQAGGSLRLSCAASGSIFRWNAMGWNRQEPGKERELVAVINSSGGSTYYADSVKGRFTISRDNAKNTVYLQMNSLKPEDTAVYYCAKGYDTTLTYNYWGQGTQVTVSS .
low polyreactivity

For QVQLVESGGGLVQAGGSLRLSCAASGRTFLWNDMGWSRQAPGKERELVAAITGSDGTYADSVKGRFTISRDNAKNTVYLQMNSLKPEDTAVYYCAAETYWYFPWKYDYWGQGTQVTVSS , what is its reported polyreactivity (PSR sort gate)?
low polyreactivity

Need polyreactivity (PSR sort gate) of QVQLVESGGGLVQAGGSLRLSCAASGFTFWWYTMGWYRQAPGKERELVAAITWSGSRTYYADSVKGRFTISRDNAKNTVYLQMNSLKPEDTAVYYCAATYLKVHGEYDYWGQGTQVTVSS , thanks.
high polyreactivity

What polyreactivity (PSR sort gate) value was documented for this sequence, QVQLVESGGGLVQAGGSLRLSCAASGITFDKYAMGWYRQAPGKERQLVAAISGSDGSTYYADSVKGRFTITRDNAKNTVYLQMNSLKPEDTAVYYCAAESEYAGTYEYDYWGQGSQVTVSS ?
low polyreactivity

Reported polyreactivity (PSR sort gate) for QVQLVESGGGLVQAGGSLRLSCSASGLTFGNNAMGWYRQAPGKETELVAAISSDGTTYYADSVKGRFTISRDHAKNTVYLQMNSLKPEDSAVYYCAALYGPGREYDYWGQGTQVTVSS : what is it?
low polyreactivity

Next:
# input sequence: QVQLVESGGGLVQAGGSLRLSCAASGRTFYLYAMGWYRQAPGKEREFVAAISWSTGSTYYADSVKGRFTISRDNAKNTVYLQMNSLKPEDTAVYYCAASTFTGYPKMYYWGQGTQVTVSS ; wanted: its polyreactivity (PSR sort gate)
high polyreactivity

Which measured polyreactivity (PSR sort gate) value corresponds to QVQLVESGGGLVQAGGSLRLSCAASGSTFVGNAMGSYRQAPGKERELVATISNSGGRTYYADSVKGRFTISRDNAKNPVYLQRNSLKPEDTAVYYCPADHPAFGPGYSFDYWGQGTQVTVSS ?
low polyreactivity

Which polyreactivity (PSR sort gate) is listed for QGQLVESGGGLVQAGGSLRLSCAASGRIFRIYAMGWYRQAPGKERELVARITYSGGSTYYADSVKGRFTISRDNAKNTVYLQMNSLKPEDTAVYYCAADWLGYQYGYWGQGTQVTVSW ?
low polyreactivity

Could you tell me which polyreactivity (PSR sort gate) is on file for QVQLVESGGGLVQAGGSLRLSCAASGSTFSRYAMGWYRQAPGKERELVAAISSSGGSTYYADSVKGRFTISRDNAKNTVYLQMNSLKPEDTAVYYCAARIWRTRRYDYWGQGTQVTVSS ?
high polyreactivity

Suppose we examine the sequence QVQLEESGGGLVQAGGSLRLTCAASGSTVDKNDMGWYRPEPGQESELVAASTSSGSSTYYADSVKGRFTISRDNAKNTVYLQMNSLKPEDTAVYYCAADKYYYDRLSPSGDYLGQGTQVTVSS ; what polyreactivity (PSR sort gate) value has been reported?
low polyreactivity

Requested read-out: polyreactivity (PSR sort gate). Entry: QVQLVESVVGLVQEGGSLRFSCAASASTLDSNPIGWYRQAPGKEREVVAAITSGGSTYYADSVKGRFTISRDNAKNTVYLQMNSLKPEDSAVYYCATAWYLGRYRSLGYWGQGTQVTVSS
high polyreactivity
